The measurements presented in this section are drawn from the supplement of paper PMC4862054.

Would you mind telling me the reported normalised viability of each entry?
Tested on: DU-4475
assayOverview: normalised viability (% of control), CellTiter-Blue; higher = more viable cells (about 100 = DMSO control)
appliedConditions: 30 nM; incubation time: 72 h

Observe how each entry below is paired with its result.
{"compound": "CC(C)(C)NC(=O)[C@H]1CC[C@H]2[C@@H]3CC[C@H]4NC(=O)C=C[C@]4(C)[C@H]3CC[C@]12C [Finasteride]", "result": "106%"}
{"compound": "COc1c2occc2cc2ccc(=O)oc12", "result": "111%"}
{"compound": "COc1ccc(S(=O)(=O)Nc2cccnc2Nc2ccc(O)cc2)cc1", "result": "95.2%"}
{"compound": "Cn1cc(C2=C(c3cn(C4CCN(Cc5ccccn5)CC4)c4ccccc34)C(=O)NC2=O)c2ccccc21", "result": "103%"}

Now take the following compound into account.
Param readout = normalised viability; param system = DU-4475; param query = CNC(=O)c1ccccc1Sc1ccc2c(/C=C/c3ccccn3)n[nH]c2c1 ; response: value
114%
